# Method Summary: cytotoxicity toward NIH3T3 fibroblasts, dose response, counter-screen, cell-based, ATP luminescence, mouse fibroblasts (AID 2010);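 note: cells exposed to compound for about 90 hours before reading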
# Format: functional
Activity calls are given as the source filed them.

Compound	EC50
COc1ccc(-c2nn(-c3ccccc3)cc2/C=C/C(=O)N2CCN(c3ccccn3)CC2)cc1	> 60 µM (not active)
O=C(CCl)N1c2ccccc2CCc2ccccc21	4.26 µM (active)
OC1CCN(Cc2ccc(OCc3ccccc3)cc2)CC1	> 60 µM (not active)
CCC(=O)NC(c1ccc(OC)c(OC)c1)c1cc(Cl)c2cccnc2c1O (stereo unspecified)	4.73 µM (active)
Oc1nc(CCl)nc2cc(-c3ccc(Cl)cc3)sc12	6.96 µM (active)
Cc1cc(C)c2nc(NNC(=O)c3ccc(S(=O)(=O)N4CC(C)CC(C)C4)cc3)sc2c1 (stereo unspecified)	3.39 µM (active)
CCC(c1nnnn1CS(=O)(=O)c1ccc(C)cc1)N1CCN(c2nc3ccccc3s2)CC1 (stereo unspecified)	> 30 µM (not active)
C=CCOc1c(Br)cc(CNCCCN2CCOCC2)cc1OC	22.9 µM (active)
O=C1C(Cl)=C(NCCN2CCCCC2)C(=O)c2ccccc21	0.798 µM (active)
O=C(Nc1nc(-c2ccc(F)cc2)cs1)C1CCN(C(=O)c2ccc(F)cc2)CC1	> 60 µM (not active)
Cc1ccc(C(=O)C(C(=O)/C=C/c2ccccc2)=C2SCCCS2)cc1	10.3 µM (active)

###

# Test Target: Rac GTPase-activating protein 1 (Homo sapiens)
# Sequence (Q9H0H5 whole entry): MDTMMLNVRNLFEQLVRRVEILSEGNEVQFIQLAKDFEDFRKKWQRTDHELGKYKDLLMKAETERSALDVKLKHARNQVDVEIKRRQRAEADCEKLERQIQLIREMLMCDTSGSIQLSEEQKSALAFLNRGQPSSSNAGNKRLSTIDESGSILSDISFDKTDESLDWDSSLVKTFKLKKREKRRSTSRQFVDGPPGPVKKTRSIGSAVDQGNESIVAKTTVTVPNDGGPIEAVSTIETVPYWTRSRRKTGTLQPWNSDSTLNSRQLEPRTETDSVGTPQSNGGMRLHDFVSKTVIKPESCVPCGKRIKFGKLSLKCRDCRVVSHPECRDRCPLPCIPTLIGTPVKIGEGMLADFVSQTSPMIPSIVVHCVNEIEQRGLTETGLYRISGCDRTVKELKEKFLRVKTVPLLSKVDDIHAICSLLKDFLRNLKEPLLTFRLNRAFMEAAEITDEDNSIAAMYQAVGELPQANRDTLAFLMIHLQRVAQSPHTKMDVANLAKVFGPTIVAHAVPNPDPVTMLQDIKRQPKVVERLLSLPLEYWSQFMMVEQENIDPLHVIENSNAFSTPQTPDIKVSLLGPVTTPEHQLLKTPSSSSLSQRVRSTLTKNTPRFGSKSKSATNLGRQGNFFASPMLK
# Method Summary: MgcRacGAP GTPase-activating activity inhibitors, confirmation, biochemical, ADP Hunter fluorescence, primary and confirmatory (AID 624330)
# Type: functional
The source made the active and inactive calls.
Readout Type: IC50

Cpd Smiles	Readout Type	Recorded Value
COc1cc(-c2ccc(N)c(OC)c2)ccc1N	IC50	9 µM (active)
CCC(=O)NC1=C(Cl)C(=O)C(NC(=O)CC)=C(Cl)C1=O	IC50	23.3 µM (active)
CSc1ccc(CN2CCN(Cc3ccccc3Cl)CC2)cc1	IC50	95.1 µM (active)
CN(CC(=O)NCc1ccccc1)Cc1cccc(F)c1	IC50	67 µM (active)
CCOc1cc(/C=C(\C#N)C(=O)NCc2cccnc2)ccc1O	IC50	42.4 µM (active)
Nc1ccc2c3c(cccc13)-c1ccccc1-2	IC50	39.2 µM (active)
COc1ccc(/C=N/Nc2cc(C)nc3ccc(OC)cc23)c(OC)c1	IC50	36.4 µM (active)
O=C1/C(=C\c2ccc([N+](=O)[O-])cc2)CS(=O)(=O)C/C1=C/c1ccc([N+](=O)[O-])cc1	IC50	24.8 µM (active)
CNc1c2cccc(C)c2nc2c(C(=O)NCCN(C)C)cccc12	IC50	34.6 µM (active)
COc1cc(/C=N/Nc2cc(C)nc(NS(=O)(=O)c3ccccc3)n2)ccc1O	IC50	37.8 µM (active)
COc1ccccc1CNc1ncc(-c2ccccc2)n1C	IC50	49.5 µM (active)

All values here come from ChEMBL document CHEMBL1201862.
